A collection of molecules and their measured EC50
test system: Influenza A virus H3N2; assay: Antiviral activity against IInfluenza A virus H3N2 A/HK/7/87 infected in MDCK cells after 4 days by MTS assay; format: functional, organism-based; settings: A/HK/7/87, MDCK, 96 h

>  <molecule>
Cc1c(C(=O)NN2C(=O)C(C)SC23CCCC3)[nH]c2ccc(Cl)cc12 (stereo not given)

>  <comparison_operator>
>

>  <EC50 / µM>
100

$$$$
>  <molecule>
Cc1c(C(=O)NN2C(=O)CSC23CCC(C)CC3)[nH]c2ccc(Cl)cc12 (stereo not given)

>  <comparison_operator>
>

>  <EC50 / µM>
100

$$$$
>  <molecule>
NC12CC3CC(CC(C3)C1)C2 [AMANTADINE]

>  <comparison_operator>
=

>  <EC50 / µM>
1.2

$$$$
>  <molecule>
Cc1c(C(=O)NN2C(=O)CSC23CCCCC3)[nH]c2ccc(Cl)cc12

>  <comparison_operator>
>

>  <EC50 / µM>
100

$$$$
>  <molecule>
Cc1c(C(=O)NN2C(=O)C(C)SC23CCC(c2ccccc2)CC3)[nH]c2ccc(Cl)cc12 (stereo not given)

>  <comparison_operator>
>

>  <EC50 / µM>
100

$$$$
>  <molecule>
Cc1c(C(=O)NN2C(=O)CSC23CCC(C(C)(C)C)CC3)[nH]c2ccc(Cl)cc12 (stereo not given)

>  <comparison_operator>
>

>  <EC50 / µM>
100

$$$$
>  <molecule>
Cc1c(C(=O)NN2C(=O)C(C)SC23CCC(C)CC3)[nH]c2ccc(Cl)cc12 (stereo not given)

>  <comparison_operator>
=

>  <EC50 / µM>
0.045

$$$$
>  <molecule>
NC(=O)c1ncn([C@@H]2O[C@H](CO)[C@@H](O)[C@H]2O)n1 [RIBAVIRIN]

>  <comparison_operator>
=

>  <EC50 / µM>
4.6

$$$$
>  <molecule>
Cc1c(C(=O)NN2C(=O)CSC23CCCCC3C)[nH]c2ccc(Cl)cc12 (stereo not given)

>  <comparison_operator>
>

>  <EC50 / µM>
100

$$$$
>  <molecule>
Cc1c(C(=O)NN2C(=O)C(C)SC23CCCC(C)C3)[nH]c2ccc(Cl)cc12 (stereo not given)

>  <comparison_operator>
=

>  <EC50 / µM>
0.023

$$$$
